# target of assay: Rap guanine nucleotide exchange factor 3 (Homo sapiens) (UniProt O95398)
# procedure details: Counterscreen qHTS for agonist of cAMP-regulated guanine nucleotide exchange factor 3 (EPAC1) (AID 1645889); also: % of control where 0% means no effect; nearly all actives have a fitted effect of over 40% in size
# condition set: EPAC1 Rap1B-BODIPY-GDP exchange, fluorescence; series mostly up to 154 µM
Records with an inconclusive call do not appear. Active and inactive are the calls of the source. Calls follow the shape of the dose curve; as a rule, active = well fitted activation curve with a large enough effect; inconclusive = small, poorly fitted or top-dose-only effect, or another doubt; inactive = no such curve, though single readings can be large or run the other way.
measurement type: activation

Recorded activation, per entry:
>>> readout_value("CCc1cc(C(=O)N=Nc2c(O)[nH]c3ccc([N+](=O)[O-])cc23)c2ccccc2n1")
"inactive"
>>> readout_value("CCOC(=O)c1[nH]c2ccc(OCC)cc2c1NC(=O)CN1CCN(c2ccccn2)CC1")
"inactive"
>>> readout_value("Cn1c(N)c(C(=O)COC(=O)c2cc(-c3ccco3)nc3ccccc23)c(=O)n(C)c1=O")
"inactive"
>>> readout_value("COc1cc2c(c(OC)c1OC)C(c1ccccc1C)CC(=O)O2 (stereo unspecified)")
"inactive"
>>> readout_value("C/C(=N\\NC(=O)c1cc2ccccc2cc1O)c1ccc(C)o1")
"28.4% [at 30.8 µM] (inactive)"

Determine its reported activation: O=[N+]([O-])c1cc2oc3c(c2c(C=NCc2ccncc2)c1O)CCCC3
15.1% [at 30.8 µM] (inactive)

Query activation for COc1cccc(-c2coc3c(C)c4oc(=O)c(CCC(=O)O)c(C)c4cc23)c1
inactive

For the compound CC(C)C(=O)NC(c1ccccc1)c1cc([N+](=O)[O-])c2cccnc2c1O (stereo unspecified) , give its measured activation value.
39.4% [at 30.8 µM] (inactive)

Supply measured activation of CCCCCOC(=O)C1=C(C)Nc2nnnn2C1c1ccccc1Cl (stereo unspecified) in your reply.
21.2% [at 30.8 µM] (inactive)

For the compound CCc1ccc(NS(=O)(=O)c2cc3c4c(c2)CCN4C(=O)CC3)cc1 , give its reported activation.
inactive

Retrieve activation measured for C=CCn1c(SCc2cc([N+](=O)[O-])cc3c2OCOC3)nc2cc(C(=O)O)ccc2c1=O and print it.
inactive

Input Cc1nc2c(C(=O)NCCc3ccc(Cl)cc3)c[nH]n2c(=O)c1Cc1ccccc1F , output reported activation.
inactive

Recall and state the measured activation for O=C1c2cccc3c(N4CCCCC4)ccc(c23)C(=O)N1c1ccc(O)cc1 .
inactive

Report activation for COc1cccc(CC(=NO)c2cccc(OC)c2)c1
2.23% [at 30.8 µM] (inactive)

Please report activation for the following compound: Cc1ccc2nc(N3C(=O)C(O)=C(C(=O)c4ccc(C)o4)C3c3ccc(O)cc3)sc2c1 (stereo unspecified)
inactive

Return reported activation. Input compound: Cc1ccc(SCc2nnc(N)s2)cc1
7.74% [at 30.8 µM] (inactive)

====

# target of assay: Rap guanine nucleotide exchange factor 3 (Homo sapiens)
# procedure details: Counterscreen qHTS for agonist of cAMP-regulated guanine nucleotide exchange factor 3 (EPAC1) (AID 1645889); also: % of control where 0% means no effect; nearly all actives have a fitted effect of over 40% in size
# condition set: EPAC1 Rap1B-BODIPY-GDP exchange, fluorescence; series mostly up to 154 µM
Records with an inconclusive call do not appear. Calls of active or inactive are those of the source. Calls come from the whole dose curve; as a rule, active = well fitted activation curve with a large enough effect; inconclusive = small, poorly fitted or top-dose-only effect, or another doubt; inactive = no such curve, though single readings can be large or run the other way.
measurement type: activation

Illustrative cases are given below, each with its answer.
>>> readout_value("CC(C)(C)N1CC(c2nc3ccccc3n2CCOc2ccccc2)CC1=O (stereo unspecified)")
"inactive"
>>> readout_value("COc1ccc(CCC(=O)N(C)CC(=O)Nc2ccc(Cl)c(C(F)(F)F)c2)cc1")
"inactive"
>>> readout_value("O=S(=O)(O)c1cc(O)c(N=Nc2ccc(O)cc2O)c2ccccc12")
"inactive"
>>> readout_value("CC1(Cc2ccccc2OC(F)(F)F)C(=O)Nc2ccc(-c3ccsc3)cc21 (stereo unspecified)")
"inactive"
>>> readout_value("CC(C)c1ccc(S(=O)(=O)Nc2ccc3c(c2)OCO3)cc1")
"inactive"
>>> readout_value("O=C(O)c1ccc(N/N=C/c2cn(Cc3ccccc3F)c3ccccc23)cc1")
"inactive"
>>> readout_value("Cc1cc(/C=C2\\SC(=S)NC2=O)c(C)n1-c1ccc(O)cc1")
"inactive"
>>> readout_value("COc1ccc(/C=N/Nc2ncnc3sc(C)c(C)c23)cc1")
"inactive"
>>> readout_value("Cc1cc(S(=O)(=O)N2CCN(CC(=O)N(C)Cc3ccccc3)CC2)ccc1Br")
"inactive"
>>> readout_value("COc1ccc2c(c1)O[C@H](c1ccc3c(c1)OCO3)[C@@H](O)C2=O")
"17% [at 30.8 µM] (inactive)"

Identify measured activation corresponding to COc1ccc2[nH]cc(S(=O)(=O)c3ccc(C)cc3)c2c1
inactive

Specify reported activation for the compound shown: CC1=CCC[C@@H]2[C@@](C)(CC/C(C)=C/C(=O)O)[C@H](C)CC[C@@]12C
10.7% [at 30.8 µM] (inactive)

State its activation: COC(=O)CC1(c2ccc(OC)cc2)C(=O)c2ccccc2C1=O
inactive

Please look at this compound and report its activation: CCOC(=O)c1c(-c2ccc(OC)cc2)csc1/N=C/C1=C(O)CCCC1=O
11.3% [at 30.8 µM] (inactive)

Supply activation value. Item: Cc1ccc(Cc2cnc(N3C(=N)SC(c4ccccc4)C3=O)s2)cc1 (stereo unspecified)
27.7% [at 30.8 µM] (inactive)

Give activation for the following compound: CCCC(C(=O)Nc1ccc(S(=O)(=O)Nc2nccs2)cc1)c1ccccc1 (stereo unspecified)
8.61% [at 30.8 µM] (inactive)

Give the value of activation reported for the following: N#Cc1c(Nc2ccccc2)sc(C(=O)c2ccccc2)c1N
19.9% [at 30.8 µM] (inactive)

====

# target of assay: Guanidinoacetate N-methyltransferase (Homo sapiens)
# procedure details: Confirmatory Screen for Target Class Profiling of Small Molecule Inhibitors of Methyltransferases (AID 1745852); as to activity change, negative = inhibition: % is scaled to controls: 0 for no effect and ±100 for the full control effect
# condition set: MTase-Glo luminescence, SAH detection, recombinant enzyme; at 57.3 µM (top of the series) unless noted
Parameter: activity change, negative = inhibition. Scope: all listed entries.
Give the quantity in %, number only.

Record excerpt, results attached:
>>> readout_value("CC1CC(C)CN(S(=O)(=O)c2ccc3c(c2)oc(=O)n3CC(=O)Nc2cccc(F)c2)C1 (centres undefined)")
0
>>> readout_value("Cc1cnc(CCNC(=O)c2n[nH]c(=O)c3ccccc23)n1C1CCCCC1")
5.31
>>> readout_value("COc1ccc(CCN2C(=O)c3cc4occc4n3CC2(C)C(=O)NC2CCCCCC2)cc1OC (centres undefined)")
-1.83
>>> readout_value("Cc1ccc(-c2ccc(N)nc2)c2cccnc12")
1.37
>>> readout_value("COc1ccc(CCN2C(=O)c3ccc(-c4ccco4)n3CC2(C)C(=O)NC2CCCC2)cc1OC (centres undefined)")
-6.46
>>> readout_value("CC1CCCCN1CCCNC(=O)Cn1ccc2cc(S(=O)(=O)N3CCCCC3)ccc21 (centres undefined)")
0
>>> readout_value("CCCC1c2cccn2CCN1C(=O)Nc1ccc(Br)cc1 (centres undefined)")
-4.2
>>> readout_value("CCN(CC)CCCNC(=O)CCc1nnc2n(Cc3ccc(F)cc3)c(=O)c3ccccc3n12")
0
>>> readout_value("O=C(Nc1ccc2c(N3CCCCC3)ncnc2c1)c1ccccc1C(F)(F)F")
-6.31
>>> readout_value("CCc1ccc(N2C(=O)c3cc4sccc4n3CC2(C)C(=O)NC2CCCCCC2)cc1 (centres undefined)")
0.902

Quote activity change, negative = inhibition reported for COc1cccc(N2C(=O)c3cc4occc4n3CC2(C)C(=O)NC2CCCCCC2)c1 (centres undefined) please.
-2.57

Return reported activity change, negative = inhibition. Input molecule: Cc1ccc([C@@H]2CN(c3cc(N4CCC(O)CC4)ncn3)C[C@H]2N(C)C)cc1
-0.694

Please supply the value of reported activity change, negative = inhibition for the item O=S(=O)(c1ccc(Br)cc1)c1nnn2c1nc(NCCc1c[nH]c3ccccc13)c1ccccc12
-2.1

====

# target of assay: Nicotinamide N-methyltransferase (Homo sapiens) (UniProt P40261)
# Sequence (P40261 whole entry, looked up): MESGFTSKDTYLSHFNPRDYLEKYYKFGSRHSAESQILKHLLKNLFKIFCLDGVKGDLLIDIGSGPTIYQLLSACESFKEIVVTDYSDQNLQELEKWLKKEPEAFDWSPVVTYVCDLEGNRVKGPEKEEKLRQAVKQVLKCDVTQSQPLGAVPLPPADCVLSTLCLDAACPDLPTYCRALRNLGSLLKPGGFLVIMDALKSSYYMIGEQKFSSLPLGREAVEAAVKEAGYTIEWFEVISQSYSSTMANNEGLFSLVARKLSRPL
# procedure details: Confirmatory Screen for Target Class Profiling of Small Molecule Inhibitors of Methyltransferases (AID 1745852)
# condition set: MTase-Glo luminescence, SAH detection, recombinant enzyme; measured here: NNMT max response; stronger effect = lower value
Recorded measurements of activity, one per entry
Value expressed in %; do not type the unit.

Consider the worked cases shown below.
>>> readout_value("Cc1noc(C)c1[S+](=O)([O-])N1CCn2c(nn(-c3ccc(C(F)(F)F)cc3)c2=O)C1")
-3.73
>>> readout_value("Cn1c(C(=O)NCCN2CCCCC2)cc2c1CCN(Cc1cccc(F)c1)C2")
7.53
>>> readout_value("COc1ccccc1CNC(=O)C1(C)Cn2c(cc3ccccc32)C(=O)N1Cc1ccc(OC)c(OC)c1 (stereo unspecified)")
-60.4
>>> readout_value("O=C(NCc1ccc(Cl)cc1)c1ccc2c(=O)nc3c(-c4ccccc4F)n[nH]n3c2c1")
-14.9
>>> readout_value("Cc1c(O)cc(O)c2c(=O)c(O)c(-c3ccc(O)c(O)c3)oc12")
-19.4
>>> readout_value("O=C(c1cc(-c2ccccc2)n[nH]1)N1CCc2c(nc(-c3ccccc3)[nH]c2=O)C1")
3.92

Quick one: give measured activity for O=C(NCCc1ccc(Cl)cc1)c1ccc2c(=O)[nH]c3c(C(=O)NC4CCCC4)sc(=S)n3c2c1
-77.1

Provide measured activity value, entry: COc1cccc([S+](=O)([O-])N2CCC3(C2)N=C(c2cccnc2)C(=O)N3)c1 (stereo unspecified)
-8.17

Query activity for O=C(c1ccc(C2CCCNC2)cc1)N1CCN(c2ccncc2)CC1 (stereo unspecified)
-3.55

Tell us which activity value is on record for Cc1cc(F)ccc1NS(=O)(=O)c1ccc2[nH]c3c(c2c1)CCCC3
-33.2

Tell me measured activity for Cc1ccc(Cn2c(=O)c3ccccc3n3c(CCC(=O)N4CCC(N5CCCCC5)CC4)nnc23)cc1 please.
-14.2

Tell me activity reported for COc1ccc(OC)c2c1cc1n2CC(C)(C(=O)NC2CCCCC2)N(Cc2ccccn2)C1=O (stereo unspecified)
-22.4

Dear colleague, please send me the reported activity for CN(C)CCNC(=O)c1ccnc(-c2nnc3ccc(N(C)c4ccccc4)nn23)c1 when you can.
-14.4

Answer with the recorded activity of Cn1c(=O)n(C)c2cc(S(=O)(=O)N3CCN(C4CCCCC4)CC3)ccc21 only.
-8.71

For the compound Cc1cnc(C2CCC2)n1C1CCN(C(=O)CCC2CCCC2)CC1 , report activity.
-13.3

Give a short answer stating reported activity for CCCCNC(=O)c1cccc(-c2cc(N3CCN(C)CC3)nc(N)n2)c1 .
-3.76

Return value of activity for input Cc1ccc(NC(=O)N2CCc3c(c4ccccc4n3CC3CC3)C2)cc1 , no commentary.
5.96

Give the reported activity for this compound. CN(CCCNC(=O)Cn1ccc2cc(S(=O)(=O)N3CCCCC3)ccc21)C1CCCCC1
-1.2

Item COc1cccc(CNC(=O)c2sc(=S)n3c2[nH]c(=O)c2cc4c(cc23)OCO4)c1 : provide activity
-43.7

Find the measured activity of COc1ccc(CCN2C(=O)c3cc4occc4n3CC2(C)C(=O)NC2CCCCCC2)cc1OC (stereo unspecified) and report it.
-64.2

Return activity for the following compound: CCN(CC)CCCNC(=O)CCc1nnc2n(Cc3ccccc3)c(=O)c3ccccc3n12
-2.92
